This collection of values is drawn from PubChem BioAssay (NCI).

Test system: HL-60(TB) leukemia
Assay: NCI-60 one-dose screen, 48 h
Conditions: 10 µM unless noted
This is part of a sample that, as a whole, favours compounds with a hit. Of some 83,000 tested, about 20% had one in any assay. Activity calls are given as the source filed them. How the source made its calls: active means growth percent below 10; inactive means the rest.
Permitted responses: active, inactive

Past entries and their recorded results:
1) COc1c(F)ccc(C(=O)Nc2ccc3nc(NC(=O)C4CCCN(S(=O)(=O)c5ccc(Br)s5)C4)sc3c2)c1F (centres undefined) | inactive
2) O=C(Nc1ccc(Cl)c([N+](=O)[O-])c1)Nc1ccc(Cl)c([N+](=O)[O-])c1 | active
3) NC(=O)c1ccc(-c2ccc3ncnc(N4CCc5cc(F)c(Cl)cc54)c3c2)cn1 | inactive
4) Cc1nc(N)ncc1-c1ccc2ncnc(N3CCc4cc(F)c(Cl)cc43)c2c1 | inactive
5) CSc1ccc(C(=O)Nc2ccc3nnn(/C(C#N)=C/c4ccccn4)c3c2)cc1 | active

Recorded test call requested for CCN1CCN(Cc2ccc(C(=O)Nc3cccc(-c4cn(-c5ccc6oc(=O)ccc6c5)nn4)c3)cc2C(F)(F)F)CC1
inactive

Called result for COc1ccc(-c2nc(SC(C)C)nc(NCCc3c[nH]c4ccccc34)c2C#N)cc1
inactive

Please let me know the test result on file for O=C(CSc1nnc(-c2ccc(-c3nc4ccc(Cl)cc4[nH]3)cc2)o1)Nc1ccccc1 .
inactive

Any idea what this test logged for CC(=O)Nc1ccc(-n2cnc3cc(-c4ccc(O)cc4)ccc32)cc1F ?
active

Outcome? Cc1nc(Nc2ncc(C(=O)Nc3c(C)cccc3Cl)s2)cc(N2CCN(CCCNC(=O)COc3ccc(C4CCC(=O)NC4=O)cc3)CC2)n1 (centres undefined)
inactive
